Reported IC50 by item:
biological target: p300 HAT domain (residues 1287-1666) (Homo sapiens (Human), UniProt Q09472)
Sequence (Q09472 1287-1666): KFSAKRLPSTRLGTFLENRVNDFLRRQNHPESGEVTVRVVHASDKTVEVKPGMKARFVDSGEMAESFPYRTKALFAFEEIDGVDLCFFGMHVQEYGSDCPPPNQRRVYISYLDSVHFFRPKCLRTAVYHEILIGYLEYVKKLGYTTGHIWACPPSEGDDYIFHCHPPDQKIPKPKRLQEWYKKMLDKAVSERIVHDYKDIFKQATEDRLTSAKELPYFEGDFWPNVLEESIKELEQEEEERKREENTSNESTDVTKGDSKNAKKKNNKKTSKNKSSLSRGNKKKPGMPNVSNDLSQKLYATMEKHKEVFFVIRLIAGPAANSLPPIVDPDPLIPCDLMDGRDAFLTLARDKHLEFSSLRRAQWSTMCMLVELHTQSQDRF

Field: example entries. Status: answers known.
MOLECULE | TEST TARGET | IC50
CN1CCN(c2ccc(NC(=O)C(NCCc3ccc(C#N)cc3)c3ccccc3)nc2)CC1=O (single isomer, unassigned) [44 Isomer 1] | p300 HAT domain (residues 1287-1666) (Homo sapiens (Human), UniProt Q09472) | > 2 µM
Cn1cc(-c2ccc(NC(=O)C(NCCc3ccc(C#N)cc3)c3ccc(Cl)cc3)nc2)cn1 (single isomer, unassigned) [67 Isomer 1] | p300 HAT domain (residues 1287-1666) (Homo sapiens (Human), UniProt Q09472) | > 2 µM
C[C@H](CNC(C(=O)Nc1ccc(C2CC(=O)N(C)C2)cn1)c1ccccc1)c1ccc(C#N)cc1 (single isomer, unassigned) [109 Isomer 4] | p300 HAT domain (residues 1287-1666) (Homo sapiens (Human), UniProt Q09472) | 0.0261 µM

Inquiry: GET IC50 | system: p300 HAT domain (residues 1287-1666) (Homo sapiens (Human), UniProt Q09472) | item: Cn1cc(-c2ccc(NC(=O)[C@@H](NCCc3ccc(C#N)cc3)c3ccccc3)cc2)cn1 (single isomer, unassigned) [1 Isomer 1]
Reply text: 4.99 µM

Inquiry: Give the observed IC50 of N#Cc1ccc(CCNC(C(=O)Nc2ccn(C3CCOCC3)n2)c2ccccc2)cc1 (single isomer, unassigned) [30 Isomer 2] for p300 HAT domain (residues 1287-1666) (Homo sapiens (Human), UniProt Q09472).
Reply text: > 5 µM

Inquiry: Lab note: record IC50 of CC(CNC(C(=O)Nc1ccc(-c2cnn(C)c2)cn1)c1ccccc1)c1ccc(C#N)c(F)c1 (single isomer, unassigned) [91 Isomer 3] tested on p300 HAT domain (residues 1287-1666) (Homo sapiens (Human), UniProt Q09472).
Reply text: 1.02 µM

====

// each record: one item and its pIC50 for full length p300 (Homo sapiens (Human), UniProt Q09472)
Conceptually, pIC50 converts a concentration in mol/L into minus its log10.

COMPOUND | MEASUREMENT
Cn1cc(-c2ccc(NC(=O)[C@@H](NCCc3ccc(C#N)cc3)c3ccccc3)cc2)cn1 (single isomer, unassigned) [1 Isomer 2] | 8.40

Inquiry: Report pIC50 on full length p300 (Homo sapiens (Human), UniProt Q09472) for this entry: Cn1ccc(-c2ccc(NC(=O)C(NCCc3ccc(C#N)cc3)c3ccccc3)nc2)n1 (single isomer, unassigned) [14 Isomer 1]
Sequence (Q09472 whole entry): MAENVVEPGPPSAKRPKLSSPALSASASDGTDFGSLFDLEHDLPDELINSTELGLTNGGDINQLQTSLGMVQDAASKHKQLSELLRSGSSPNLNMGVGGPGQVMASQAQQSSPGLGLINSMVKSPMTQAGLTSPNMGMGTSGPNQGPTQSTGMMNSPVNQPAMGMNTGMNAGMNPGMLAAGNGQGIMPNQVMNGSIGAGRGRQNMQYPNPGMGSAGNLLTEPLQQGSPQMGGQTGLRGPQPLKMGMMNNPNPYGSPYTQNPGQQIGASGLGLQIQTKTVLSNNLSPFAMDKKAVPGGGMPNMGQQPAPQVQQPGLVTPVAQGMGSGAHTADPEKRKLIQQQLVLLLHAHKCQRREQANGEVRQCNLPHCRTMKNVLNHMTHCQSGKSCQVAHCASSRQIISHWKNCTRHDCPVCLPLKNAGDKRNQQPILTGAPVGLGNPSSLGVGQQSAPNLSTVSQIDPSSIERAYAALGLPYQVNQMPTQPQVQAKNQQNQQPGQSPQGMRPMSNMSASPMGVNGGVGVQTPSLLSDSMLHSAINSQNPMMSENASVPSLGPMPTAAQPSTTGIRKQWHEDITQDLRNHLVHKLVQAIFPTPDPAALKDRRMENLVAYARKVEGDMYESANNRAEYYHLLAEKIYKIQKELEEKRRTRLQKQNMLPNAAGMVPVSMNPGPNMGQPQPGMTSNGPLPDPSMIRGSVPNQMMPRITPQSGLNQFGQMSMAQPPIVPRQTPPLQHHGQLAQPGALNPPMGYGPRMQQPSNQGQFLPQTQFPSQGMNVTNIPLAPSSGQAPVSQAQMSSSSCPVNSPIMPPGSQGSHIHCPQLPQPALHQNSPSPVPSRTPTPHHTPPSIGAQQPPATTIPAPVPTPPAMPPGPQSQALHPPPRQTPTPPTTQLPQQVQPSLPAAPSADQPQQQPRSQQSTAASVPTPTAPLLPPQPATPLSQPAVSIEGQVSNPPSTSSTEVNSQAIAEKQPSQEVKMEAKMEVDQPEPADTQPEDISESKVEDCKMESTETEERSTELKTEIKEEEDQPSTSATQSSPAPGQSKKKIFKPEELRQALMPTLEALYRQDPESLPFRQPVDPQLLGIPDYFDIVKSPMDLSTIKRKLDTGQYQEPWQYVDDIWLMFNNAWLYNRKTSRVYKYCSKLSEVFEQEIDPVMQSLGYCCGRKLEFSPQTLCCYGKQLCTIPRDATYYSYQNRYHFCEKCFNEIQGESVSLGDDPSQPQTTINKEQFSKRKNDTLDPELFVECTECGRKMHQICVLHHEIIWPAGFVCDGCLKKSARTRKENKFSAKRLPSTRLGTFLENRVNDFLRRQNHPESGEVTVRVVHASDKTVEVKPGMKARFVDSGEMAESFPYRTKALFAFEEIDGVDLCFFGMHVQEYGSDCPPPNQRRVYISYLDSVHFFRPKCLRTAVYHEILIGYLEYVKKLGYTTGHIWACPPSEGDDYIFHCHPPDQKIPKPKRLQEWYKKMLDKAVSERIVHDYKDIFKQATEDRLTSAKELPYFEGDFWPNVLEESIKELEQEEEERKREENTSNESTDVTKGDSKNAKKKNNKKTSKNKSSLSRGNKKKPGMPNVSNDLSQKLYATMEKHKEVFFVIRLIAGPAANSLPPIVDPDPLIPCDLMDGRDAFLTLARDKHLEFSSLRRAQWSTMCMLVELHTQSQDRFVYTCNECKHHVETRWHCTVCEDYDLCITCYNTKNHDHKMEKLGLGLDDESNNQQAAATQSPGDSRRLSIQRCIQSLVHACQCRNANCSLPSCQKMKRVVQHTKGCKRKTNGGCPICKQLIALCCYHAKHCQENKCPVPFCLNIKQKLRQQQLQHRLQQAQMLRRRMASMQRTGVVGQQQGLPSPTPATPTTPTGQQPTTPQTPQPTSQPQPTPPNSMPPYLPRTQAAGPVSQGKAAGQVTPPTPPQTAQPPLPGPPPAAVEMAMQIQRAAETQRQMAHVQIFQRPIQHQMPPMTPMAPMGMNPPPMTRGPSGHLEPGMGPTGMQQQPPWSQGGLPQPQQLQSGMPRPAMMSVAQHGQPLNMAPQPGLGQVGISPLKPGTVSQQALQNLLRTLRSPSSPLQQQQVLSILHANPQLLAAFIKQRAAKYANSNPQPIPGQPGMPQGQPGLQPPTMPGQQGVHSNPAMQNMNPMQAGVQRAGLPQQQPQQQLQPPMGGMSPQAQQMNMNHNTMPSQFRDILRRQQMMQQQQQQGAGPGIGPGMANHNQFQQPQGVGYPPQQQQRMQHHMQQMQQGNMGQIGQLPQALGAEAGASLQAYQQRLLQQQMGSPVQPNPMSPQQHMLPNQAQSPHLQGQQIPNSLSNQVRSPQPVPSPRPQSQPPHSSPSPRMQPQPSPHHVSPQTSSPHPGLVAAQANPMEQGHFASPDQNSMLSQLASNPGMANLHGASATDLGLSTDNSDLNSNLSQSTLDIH
Reply text: 6.75

Inquiry: Look up full length p300 (Homo sapiens (Human), UniProt Q09472) data: pIC50 of Cc1ccn(-c2ccc(NC(=O)C(NCC(C)c3ccc(C#N)cc3)c3ccccc3)nc2)n1 (single isomer, unassigned) [61 Isomer 2] , then report it.
Reply text: 6.91

Inquiry: Specify pIC50 for CS(=O)(=O)N1CCN(c2ccc(NC(=O)C(NCCc3ccc(C#N)cc3)c3ccccc3)nc2)CC1 (single isomer, unassigned) [68 Isomer 2] , system full length p300 (Homo sapiens (Human), UniProt Q09472).
Reply text: 8.72

Inquiry: State, for full length p300 (Homo sapiens (Human), UniProt Q09472), measured pIC50 of the compound listed here: Cc1cc(NC(=O)C(NC[C@@H](C)c2ccc(C#N)cc2)c2ccccc2)ncc1-c1cnn(C)c1 (single isomer, unassigned) [115 Isomer 2]
Reply text: 8.92
